For each entry below, report its Specific activity, Naringenin chalcone value.
- Method summary: Specific activity of purified CHI, absorbance decrease at 384 nm, naringenin chalcone; also: unit not given here
- Assay type: biochemical
- Conditions: purified CHI in 50 mM PBS, 100 μM substrate, 25° C.
- Protocol: E. coli BL21 (DE3) cells containing one of the pET28b plasmids from Table 2 or Table 3 were used to inoculate 1 L LB medium at OD of 0.1. […] The activity of the respective purified enzyme was determined by measuring the absorbance decrease at 384 nm in the reaction mix (CHI in 50 mM PBS with 100 μM of either naringenin chalcone, hesperetin chalcone, eriodictyol chalcone, homoeriodictyol chalcone or 4-O-methyl butein at 25° C.).
Give bare numbers.

CHI8: Chalcone isomerase from Roseburia sp., access no. SCJ10619.1 (protein, listed as Roseburia sp.) RSLIYVDVAKEQYRVKLNHWLYAVHVPESISKFRPYVSQYAFYNALPVPPLGEQFGTVRMQLTEHYWQVNPMDVSMAVNVFTETFPTEVLIWQGNMPENAIALNYEGDEARSAKVENCNPFVFAFLPISWEEDLKGAGRTMADGPNYRWNFALHYPDGVSVETGDQWFYEKFVPAFLEIPEATRMVTSKIIKEINDCPMDRVVEIWFEGPDQWSAAMEKAKSIEPPEWAQEETFPYLKPYQNIMGVFVADNISSDNLNNHRGYITMR
73.5

Next item in the queue.
May I ask what Specific activity, Naringenin chalcone has been recorded for CHI10: Chalcone isomerase from Clostridium sp. SY8519, access no. WP_013977558.1 (protein, Clostridium sp. SY8519) ADFEFNPMRSLIYIDCVKNDYRHKLQYWLYKHHIPDSIAKFEPYVSKYAFYSALPVPEDGEEFGTYNYQLTEHYWLCNPLTADFAVNSLQESFTPDVLKWQGIIPDIDITPEMMAAMQNADDARASEGSEAPGFDLPPFIFAFLPLSWEFQTKGEKLTIEDGPNYRWQFLVKYPEAADAEQADKWLMEEVIPAFAQMDEVKRILSSKVKQEVNGCVYYRVVEMWFDSPSDWHRAVKEKTGAISKPEWASTDSFPYLRPKHEMASIFLSDIPTTDNLLQYRGFIPMR ?
0.7
